Test system: CCRF-CEM leukemia
Protocol details: NCI-60 one-dose screen, 48 h
Assay setup: 10 µM
The panel holds about 83,000 compounds, 20% with a hit somewhere; the sample as a whole holds those more often. Calls of active or inactive are those of the source. Rule for the calls: active = growth percent below 10; inactive = the rest.
Labels: 1 (active), -1 (inactive)

{"columns": ["Compound", "Qualitative label"],
 "data": [
  ["Cc1cc(C)c(NC(=O)c2sc3nc4c(cc3c2N)C(=O)CCC4)c(C)c1", -1],
  ["O=C(Nc1cccc(-n2cc(-c3ccncc3)c(-c3ccc(O)c(Cl)c3)n2)c1)Nc1ccc(Cl)c(Cl)c1", 1],
  ["COc1cc(-c2nc(Nc3nc4ccccc4s3)[nH]c(=O)c2C#N)cc(OC)c1O", -1],
  ["COc1ccc(Cn2c(C(N)=O)cc3c2-c2nc(N)ncc2CCC3)cc1", -1],
  ["O=C(Nc1cccc(-n2cc(-c3ccncc3)c(-c3ccc(O)c(Cl)c3)n2)c1)Nc1cccc(C(F)(F)F)c1", 1],
  ["Oc1[nH]c2cc(Cl)ccc2c1/C=c1/ccc2c(c1)N=C(c1cc(F)cc(F)c1)N=2", 1],
  ["O=C(Cc1csc2nc(-c3ccc(Cl)cc3)cn12)N/N=C/c1ccccc1O", -1],
  ["CN(C)CCCn1c(=O)c2ccccc2c2cnc3[nH]ccc3c21", -1],
  ["C#Cc1ccc(-n2c(/C=C/c3ccc(O)c(OC)c3)nc3ncccc3c2=O)cc1", -1],
  ["ClC(Cl)(Cl)c1nc2nccnc2[nH]1", -1],
  ["Cc1cc2c(C)c3cc(C)c(N)cc3nc2cc1N", 1],
  ["COc1ccc(N2C(=O)C3c4[nH]c5ccc(OCc6ccccc6)cc5c4C4CCC(C(C)C)CC4C3C2=O)cc1 (stereo unspecified)", -1],
  ["COc1ccc(-c2nn(-c3cccc(NC(=O)Nc4ccccc4)c3)cc2-c2ccncc2)cc1Cl", -1],
  ["CN(C)CC(O)c1ccc2cc(Br)c3ccccc3c2c1 (stereo unspecified)", -1],
  ["CCCCCC(=O)c1ccc(OCCCN2CCN(C(=O)OCC)CC2)cc1", -1],
  ["Cc1nc2oc3ccccc3c(=O)c2cc1C(=O)NCc1ccccc1", -1],
  ["COc1ccc2nc3ccccc3c(NCCNCC(C)O)c2c1 (stereo unspecified)", 1],
  ["O=C1OCC2=C1C(c1ccc(Cl)c(Cl)c1)c1cc3c(cc1N2CCO)OCCO3 (stereo unspecified)", 1],
  ["O=C1/C(=C/c2ccc([N+](=O)[O-])s2)Oc2ccccc21", 1],
  ["CCC(=O)N1C/C(=C/c2ccc(Br)cc2)C(=O)/C(=C/c2ccc(Br)cc2)C1", 1],
  ["COc1ccc(OC)c(/C=C/c2nnc(Nc3ccc(Cl)cc3)o2)c1", -1]
]}

====

Tested on: MDA-MB-231 breast
Protocol details: NCI-60 one-dose screen, 48 h (100 = growth as untreated, 0 = no growth, -100 = all killed)
Assay setup: 10 µM
About 83,000 compounds went through this panel and 20% of them were active in at least one assay; those are over-represented in the sample as a whole.

{"columns": ["Compound", "Tested target", "growth, %"],
 "data": [
  ["Nc1c(C(=O)Nc2cccc(Br)c2)sc2nc3c(cc12)C(O)CCC3 (stereo not given)", "MDA-MB-231 breast", 44.2],
  ["CCN(CC)CCC(CNc1c(C)cnc2cc(Cl)ccc12)c1ccc(Cl)cc1 (stereo not given)", "MDA-MB-231 breast", 27.3],
  ["c1ccc(CO[C@H]2CO[C@H]3[C@@H]2OC[C@H]3OCc2ccccc2)cc1", "MDA-MB-231 breast", 112],
  ["COc1ccc(-c2nc3ncccn3c2-c2nnc(-c3ccc(F)cc3)o2)cc1", "MDA-MB-231 breast", 88.9],
  ["COc1cc(-c2cc(-c3cc4c([nH]c5ccccc54)c(-c4cc(OC)c(OC)c(OC)c4)n3)cc(-c3ccccc3)n2)cc(OC)c1OC", "MDA-MB-231 breast", 45.6],
  ["CCc1ccc2c(c1)N(CCO)C1=C(C(=O)OC1)C2c1cc(OC)c(OC)c(OC)c1 (stereo not given)", "MDA-MB-231 breast", -28],
  ["O=C(Nc1cccc(-n2cc(-c3ccncc3)c(-c3cc(O)cc(Cl)c3)n2)c1)Nc1ccc(Cl)c(C(F)(F)F)c1", "MDA-MB-231 breast", -47.3],
  ["CCCCC(CCCCCC(CCCC)NCc1ccc2c(c1)OCO2)NCc1ccc2c(c1)OCO2 (stereo not given)", "MDA-MB-231 breast", -86],
  ["CSC1=NCCCC1", "MDA-MB-231 breast", 123],
  ["COc1cc(Nc2ccnc(NCCNc3ccnc4cc(Cl)ccc34)n2)cc(OC)c1", "MDA-MB-231 breast", 27.1]
]}
